System: 786-0 renal
Assay: NCI-60 one-dose screen, 48 h
Conditions: 10 µM unless noted
This is part of a sample that, as a whole, favours compounds with a hit. Of some 83,000 tested, about 20% had one in any assay. Calls of active or inactive are those of the source. The calls were made as follows: active = growth percent below 10; inactive = the rest.
Valid outcomes are listed here; reply with one: active, inactive

Worked cases, answers included:
COMPOUND	ANSWER LABEL
COc1ccc(/C=C2\COc3ccc(O)cc3C2=O)c(OC)c1	inactive
CCC(C)NCc1ccccc1 (stereo not given)	inactive
COc1ccc(OC)c(C(=O)Nc2cccc(-c3cc(=O)c4ccccc4o3)c2)c1	inactive
CCCCCCCCN(CCCCCCCC)C(=N)c1ccnc2ccccc12	active

Next compound, please.
Tell me the assay call for COC(=O)c1ccc(CSc2nnc(-c3ccncc3)o2)cc1 please.
inactive
